assay: chemical genetic growth profiling, strain panel (AID 1159580);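 further: tested at 20 µM; growth read once vehicle control cultures reached saturation at 30 °C; lower values mean less growth of the strain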; details: S. cerevisiae deletion strains, growth OD, locus YDR195W, strain ref2
The campaign covered roughly 5,500 compounds. About 2,000 (36%) were called active. Not shown: some 18% with an inconclusive outcome. No stated cut-off is given here; in the data, active means normalized growth mostly below about 0.91 (no sharp cut-off); inconclusive means no clear call, values can overlap the other calls; inactive means mostly above about 0.92. This is one part of the list.
Pick one and only one: Y for active, N for inactive

Check out these entries, answers already filled in.
O=C1C=CC(=O)c2c(O)c(Cl)c(Cl)c(O)c21 = Y
O=c1c(O)c(-c2ccccc2)oc2ccccc12 = Y
C[N+]12CCC(CC1)C(OC(=O)C(O)(c1ccccc1)c1ccccc1)C2 (stereo not given) = N
CC(=O)OCC1=C(C(=O)O)N2C(=O)[C@@H](NC(=O)CSc3ccncc3)[C@H]2SC1 = N

Query compound follows.
Could you please tell me the result logged for O=c1c(O)cccc2cc(O)c(O)c(O)c12 in this assay?
Y
